These entries and their values trace back to paper PMC3884839.

system: MDCKII-hMDR1 monolayer (Pgp efflux transporter); test: MDCKII-hMDR1 monolayer permeability and Pgp-mediated efflux; format: in vitro ADME; conditions: 3 μM, without GF918
Reported Mass balance A–B by item:
// units = %; emit number, no label

The cases that follow already have their Mass balance A–B on record.
Incoming: Lab note: need Mass balance A–B with MDCKII-hMDR1 monolayer (Pgp efflux transporter) for entry O=C(Nc1ccc2c(c1)B(O)OC2)c1ccccc1C(F)(F)F [AN3520] , please look it up.
Outgoing: 92

Incoming: // next record [O-][S+](c1ccc(Cl)cc1)c1ccc2c(c1)B(O)OC2 (stereo not shown) [AN2920]
Outgoing: 94

Incoming: Also O=C(Nc1ccc2c(c1)B(O)OC2)c1ccc(F)cc1C(F)(F)F [SCYX-6759] ?
Outgoing: 89

Shift focus to the following entry.
Incoming: Item: CC1(C)OB(O)c2cc(NC(=O)c3ccc(F)cc3C(F)(F)F)ccc21 [SCYX-7158] Test system: MDCKII-hMDR1 monolayer (Pgp efflux transporter) Read-out: Mass balance A–B Value: ?
Outgoing: 79
